Test system: CHIKV
Format: cell-based, chikungunya virus
For each of the substances below, state its Score_si4.

SUBSTANCE	SYSTEM UNDER TEST	Score_si4
s13807 (sense GCATCTGAAGACTCAGGCA; chemistry not given here)	CHIKV	-0.26

Please supply Score_si4 for each of the following items, keeping them in order.
1. s3113 (GGCGAGAGGGTATCAAGTA; chemistry not given here)
2. Hs_GRB10_6 (sense CTAGATGACGGGAACACCAAA; chemistry not given here)
3. Hs_RTN2_1 (sense TTGGATTTACACTGTAATAAA; chemistry not given here)
4. s194444 (sense GCTGCGTCTCCCTTCCAAA; chemistry not given here) [reference compound]
5. Hs_EXOSC1_1 (TTCATTCTCTTGAGTAATAAA; chemistry not given here) [reference compound]

OUTPUT:
1.79
0.5
0.49
-0.58
0.51

----------
Tested on: CHIKV
Type: cell-based, chikungunya virus
Outcome: true (1) for Score_si2 of at least 0.9; false (0) for anything lower.

Sample answers from the record:
SUBSTANCE	SYSTEM UNDER TEST	CLASS ASSIGNMENT
s18908 (sense GCAGATCACATGAAGAGAA; chemistry not given here)	CHIKV	true (1)
Hs_CDK4_1 (sense CCGAACTGACCGGGAGATCAA; chemistry not given here)	CHIKV	true (1)
s21552 (sense TCGCTTCTGTATTTATGTT; chemistry not given here)	CHIKV	true (1)
Hs_CRSP7_1 (sense TACGGTTAACTTGGACGGGCA; chemistry not given here) [reference compound]	CHIKV	false (0)
s10858 (sense CCCGCTTTATCGAAGGCAA; chemistry not given here)	CHIKV	true (1)

INPUT: Could you please find out whether Hs_TUSC1_2 (ACCGATCATTCTATTATCATT; chemistry not given here) [reference compound] has Score_si2 that meets 0.9 or exceeds it?
OUTPUT: false (0)

INPUT: I'd appreciate it if you could say whether Hs_IRAK1_10 (sense AAGCAAGTCAGGTTTCATGTA; chemistry not given here) has Score_si2 at least equal to 0.9.
OUTPUT: true (1)

----------
Test system: CHIKV
Type: cell-based, chikungunya virus
For each entry below, report its Score_si1 value.

Consider the following illustrative entries.
SUBSTANCE	SYSTEM UNDER TEST	MEASURED ATTRIBUTE	REPORTED VALUE
Hs_TRAF2_4 (CTGGACCAAGACAAGATTGAA; chemistry not given here) [reference compound]	CHIKV	Score_si1	-1.15
Hs_KIAA1012_2 (sense CAGGGTTGCTATTTACTTAAA; chemistry not given here)	CHIKV	Score_si1	2.22
Hs_SARS_2 (sense CTGATGAAACCATGTAATAAA; chemistry not given here)	CHIKV	Score_si1	2.9
Hs_DHX38_1 (CAGGATTTGGAAATAAATTTA; chemistry not given here)	CHIKV	Score_si1	2.48
s8324 (GCTGGGAAGGGATACCACA; chemistry not given here)	CHIKV	Score_si1	1.92

Provide reported Score_si1 for each item, in the same order as listed.
1. Hs_RXRA_1 (sense TTCGTGTAAGCAAGTACATAA; chemistry not given here)
2. Hs_PRPF4B_5 (sense TCGTCTGATGATAACCTTGAA; chemistry not given here)
3. s16634 (GCATAGTTTCGGTCATCTA; chemistry not given here)

OUTPUT:
2.2
2.38
2.03
